assay method text: Half life in cynomolgus monkey at 1 mg/kg,iv by LC-MS/MS analysis
Assay type: ADME, organism-based, Macaca fascicularis
recorded conditions: in vivo
measured attribute: half-life (h)
Write down the numeric answer in h and omit the unit.

Lookup: Returns the measured half-life for the input compound. Input: O=C1NCCc2c1cnn2-c1ccnc(Cc2cc(F)cc(C(F)(F)F)c2)c1
Found: 8

---

assay method text: Cmax in cynomolgus monkey at 3 mg/kg,po by LC-MS/MS analysis
Assay type: ADME, organism-based, Macaca fascicularis
Parameters: dose 3 mg/kg, route po
recorded conditions: in vivo
measured attribute: Cmax

Lookup: Need Cmax, item O=C1NCCc2c1cnn2-c1ccnc(Cc2cc(F)cc(C(F)(F)F)c2)c1
Found: 581 ng/mL

---

Listing: logP of selected compounds
assay method text: Lipophilicity, logP of the compound by shake flask assay
Type: physicochemical
recorded conditions: octanol/water

Examples with answers:
O=C1NCCc2c1cnn2-c1cc(Cc2cc(F)cc(C(F)(F)F)c2)ccn1; 3.1
O=C1NCCc2c1cnn2-c1cncc(Cc2cc(F)cc(C(F)(F)F)c2)c1; 4

// below: logP requested for another compound
Lookup: Request the reported logP associated with O=C1NCCc2c1cnn2-c1ccnc(Cc2cc(F)cc(C(F)(F)F)c2)c1
Found: 4.2

---

assay method text: Metabolic stability in rat liver microsomes assessed as intrinsic clearance preincubation with compound followed by NADPH addition and measured after 45 mins by LC-MS/MS analysis
Assay type: ADME, Microsome
recorded conditions: read-out: CLH
measured attribute: microsomal CLint (µL/min/mg)
Number in µL/min/mg, nothing else.

Below, each entry is followed by its recorded microsomal CLint result.
Cc1nn(-c2ccnc(Cc3cc(F)cc(C(F)F)c3)c2)c2c1C(=O)NCC2; 71
O=C1NCCc2c1cnn2-c1cncc(Cc2cc(F)cc(C(F)(F)F)c2)c1; 25
O=C1CCCc2c1cnn2-c1cc(Cc2cccc(C(F)(F)F)c2)ccn1; 120

Lookup: Suppose we examine the compound O=C1NCCCc2c1cnn2-c1ccnc(Cc2cc(F)cc(C(F)(F)F)c2)c1 ; what microsomal CLint value has been reported?
Found: 102

---

assay method text: Unbound brain-to-plasma concentration ratio in Sprague-Dawley rat plasma at 1 mg/kg,iv by LC-MS/MS analysis
Type: ADME, organism-based
recorded conditions: brain and plasma, read-out: K(p,uu,brain)
Consider the following molecules and their measured Kp uu readings.
// response body must contain only the number

O=C1NCCc2c1cnn2-c1ccnc(Cc2cc(F)cc(C(F)(F)F)c2)c1; 0.35

Please find the next molecule below.
Lookup: What Kp uu value was documented for this molecule, O=C1NCCc2c1cnn2-c1cc(Cc2cccc(C(F)(F)F)c2)ccn1 ?
Found: 0.4

---

assay method text: AUC (0 to infinity) in Sprague-Dawley rat at 1 mg/kg,iv by LC-MS/MS analysis
Assay type: ADME, organism-based
Set-up: dose 1 mg/kg, route iv
recorded conditions: in vivo
Quick reference for AUC(0-inf) among some molecules
Value expressed in ng·h/mL; do not type the unit.

O=C1NCCc2c1cnn2-c1cc(Cc2cccc(C(F)(F)F)c2)ccn1; 440

Attention now shifts to the item below.
Lookup: Can you share its AUC(0-inf)? I mean this molecule: O=C1NCCc2c1cnn2-c1ccnc(Cc2cc(F)cc(C(F)(F)F)c2)c1
Found: 1020

---

Reported microsomal CLint values are given for each entry in this list.
assay method text: Metabolic stability in human liver microsomes assessed as intrinsic clearance preincubation with compound followed by NADPH addition and measured after 45 mins by LC-MS/MS analysis
Type: ADME, Microsome
recorded conditions: read-out: CLH
Expressed in µL/min/mg, but write only the number.

Answered examples (2):
Cc1nn(-c2cncc(Cc3cc(F)cc(C(F)(F)F)c3)c2)c2c1C(=O)NCC2; 27
O=C1CCCc2c1cnn2-c1cc(Cc2cccc(C(F)(F)F)c2)ccn1; 50

Lookup: Entry O=C1NCCc2c1cnn2-c1ccnc(Cc2cc(F)cc(C(F)(F)F)c2)c1 has what microsomal CLint?
Found: 11

Lookup: GET /values?readout=microsomal CLint&item= O=C1NCCc2c1cnn2-c1cc(Cc2cc(F)cc(C(F)(F)F)c2)ccn1
Found: 15

From: ChEMBL document CHEMBL5252665
